These data points were gathered from PubChem BioAssay AID2060332.

pIC50 listing for selected compounds.
# Test system: LG0567-F671-PDC multi-cell spheroid viability
# assay_notes: Anticancer human tumor LG0567-F671-PDC patient-derived lung adenocarcinoma cell line growth inhibition [IpAb]
# run_parameters: curve of first compound; second compound 3.16 µM
Just so you know, pIC50 here is -log10 of the concentration in molar units; reply with that number alone.

Sample records with pIC50:
Could you tell me which pIC50 is on file for Cn1ncc(Cl)c1-c1cc(C(=O)NC(CN)Cc2cccc(F)c2)sc1Cl (stereo not drawn) + CC(C)NCC(C(=O)N1CCN(c2ncnc3c2C(C)CC3O)CC1)c1ccc(Cl)cc1 ? 5.52

Tell me the measured pIC50 of COc1c(OCCCN2CCOCC2)ccc2c3n(c(=NC(=O)c4cnc(N)nc4)nc12)CCN3 + CC(C)NCC(C(=O)N1CCN(c2ncnc3c2C(C)CC3O)CC1)c1ccc(Cl)cc1 , please. 7.65

Next:
Could you tell me which pIC50 is on file for CC(C)n1nc(-c2ccc3oc(N)nc3c2)c2c(N)ncnc21 + CC(C)NCC(C(=O)N1CCN(c2ncnc3c2C(C)CC3O)CC1)c1ccc(Cl)cc1 ? 7.57

State the recorded pIC50 for this entry: Cn1nccc1Nc1nccc(-c2ccn(C(CO)c3ccc(Cl)c(F)c3)c(=O)c2)n1 (stereo not drawn) + CC(C)NCC(C(=O)N1CCN(c2ncnc3c2C(C)CC3O)CC1)c1ccc(Cl)cc1 6.80

Need pIC50, item Cc1nc(NC(=O)N2CCCC2C(N)=O)sc1-c1ccnc(C(C)(C)C(F)(F)F)c1 (stereo not drawn) + CC(C)NCC(C(=O)N1CCN(c2ncnc3c2C(C)CC3O)CC1)c1ccc(Cl)cc1 6.47

====

# Test system: LG0567-F671-PDC multi-cell spheroid viability
# assay_notes: Anticancer human tumor LG0567-F671-PDC cell line growth inhibition [IpAb];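 also: viability read after 7 days of drug exposure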;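 as to viability, T/C: 100% = DMSO vehicle control luminescence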
# run_parameters: second compound 10 µM; first compound 0.1 µM; stronger effect = lower value
Class assignment keyed on viability, T/C, ranges I: < 40%; II: ≥ 40% and < 60%; III: ≥ 60%

Example entries and their recorded answers appear below.
Returns: class label. Input: Cn1nccc1Nc1nccc(-c2ccn(C(CO)c3ccc(Cl)c(F)c3)c(=O)c2)n1 (stereo not given) + CC(C)NCC(C(=O)N1CCN(c2ncnc3c2C(C)CC3O)CC1)c1ccc(Cl)cc1 II

Lab note: which band did Cn1ncc(Cl)c1-c1cc(C(=O)NC(CN)Cc2cccc(F)c2)sc1Cl (stereo not given) + CC(C)NCC(C(=O)N1CCN(c2ncnc3c2C(C)CC3O)CC1)c1ccc(Cl)cc1 land in? III

Hi there! Could you help me figure out the category for Cc1nc(NC(=O)N2CCCC2C(N)=O)sc1-c1ccnc(C(C)(C)C(F)(F)F)c1 (stereo not given) + CC(C)NCC(C(=O)N1CCN(c2ncnc3c2C(C)CC3O)CC1)c1ccc(Cl)cc1 please? II

Class for Cn1ncnc1[C@H]1c2n[nH]c(=O)c3cc(F)cc(c23)N[C@@H]1c1ccc(F)cc1 + CC(C)NCC(C(=O)N1CCN(c2ncnc3c2C(C)CC3O)CC1)c1ccc(Cl)cc1 ? I

Kindly state the category for this compound: C=CC(=O)N1CCN(c2nc(=O)n(-c3c(C)ccnc3C(C)C)c3nc(-c4c(O)cccc4F)c(F)cc23)C(C)C1 (stereo not given) + CC(C)NCC(C(=O)N1CCN(c2ncnc3c2C(C)CC3O)CC1)c1ccc(Cl)cc1 I

New cases:
Could you place CCCS(=O)(=O)Nc1ccc(F)c(C(=O)c2c[nH]c3ncc(-c4ccc(Cl)cc4)cc23)c1F + CC(C)NCC(C(=O)N1CCN(c2ncnc3c2C(C)CC3O)CC1)c1ccc(Cl)cc1 in its proper category? Many thanks. III

Input CC(C)n1nc(-c2ccc3oc(N)nc3c2)c2c(N)ncnc21 + CC(C)NCC(C(=O)N1CCN(c2ncnc3c2C(C)CC3O)CC1)c1ccc(Cl)cc1 ; output its category II

Band for C=CCn1c(=O)c2cnc(Nc3ccc(N4CCN(C)CC4)cc3)nc2n1-c1cccc(C(C)(C)O)n1 + CC(C)NCC(C(=O)N1CCN(c2ncnc3c2C(C)CC3O)CC1)c1ccc(Cl)cc1 ? III

// bin(item) where item = CC1(C)CCC(CN2CCN(c3ccc(C(=O)NS(=O)(=O)c4ccc(NCC5CCOCC5)c([N+](=O)[O-])c4)c(Oc4cnc5[nH]ccc5c4)c3)CC2)=C(c2ccc(Cl)cc2)C1 + CC(C)NCC(C(=O)N1CCN(c2ncnc3c2C(C)CC3O)CC1)c1ccc(Cl)cc1 III

Category of COc1c(OCCCN2CCOCC2)ccc2c3n(c(=NC(=O)c4cnc(N)nc4)nc12)CCN3 + CC(C)NCC(C(=O)N1CCN(c2ncnc3c2C(C)CC3O)CC1)c1ccc(Cl)cc1 , please. I

====

# Tested on: LG0567-F671-PDC multi-cell spheroid viability
# assay_notes: Anticancer human tumor LG0567-F671-PDC cell line growth inhibition [IpAb];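 also: viability read after 7 days of drug exposure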;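 as to viability, T/C: 100% = DMSO vehicle control luminescence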
# run_parameters: second compound 1 µM; first compound 1 µM; stronger effect = lower value
The compounds listed here are annotated with their viability, T/C.
Just the number in %, nothing appended.

Solved entries:
I have this compound here, COc1c(OCCCN2CCOCC2)ccc2c3n(c(=NC(=O)c4cnc(N)nc4)nc12)CCN3 + CC(C)NCC(C(=O)N1CCN(c2ncnc3c2C(C)CC3O)CC1)c1ccc(Cl)cc1 , and I need its recorded viability, T/C. 22.6

What value of viability, T/C has been recorded for this entry: Cn1ncc(Cl)c1-c1cc(C(=O)NC(CN)Cc2cccc(F)c2)sc1Cl (stereo not drawn) + CC(C)NCC(C(=O)N1CCN(c2ncnc3c2C(C)CC3O)CC1)c1ccc(Cl)cc1 67.1

We now examine a further compound.
Please give the measured viability, T/C for this compound: C=CCn1c(=O)c2cnc(Nc3ccc(N4CCN(C)CC4)cc3)nc2n1-c1cccc(C(C)(C)O)n1 + CCN1CCN(Cc2ccc(Nc3ncc(F)c(-c4cc(F)c5nc(C)n(C(C)C)c5c4)n3)nc2)CC1 43.9

====

Some compounds, each annotated with its measured viability, T/C.
# System: LG0567-F671-PDC multi-cell spheroid viability
# assay_notes: Anticancer human tumor LG0567-F671-PDC cell line growth inhibition [IpAb];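 also: viability read after 7 days of drug exposure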;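 as to viability, T/C: 100% = DMSO vehicle control luminescence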
# run_parameters: second compound 3.16 µM; first compound 0.0316 µM; stronger effect = lower value

Entry CC1(C)CCC(CN2CCN(c3ccc(C(=O)NS(=O)(=O)c4ccc(NCC5CCOCC5)c([N+](=O)[O-])c4)c(Oc4cnc5[nH]ccc5c4)c3)CC2)=C(c2ccc(Cl)cc2)C1 + CC(C)NCC(C(=O)N1CCN(c2ncnc3c2C(C)CC3O)CC1)c1ccc(Cl)cc1 : reported viability, T/C = ? 71.5%

Quick one: viability, T/C for Cc1nc(NC(=O)N2CCCC2C(N)=O)sc1-c1ccnc(C(C)(C)C(F)(F)F)c1 (stereo not given) + CC(C)NCC(C(=O)N1CCN(c2ncnc3c2C(C)CC3O)CC1)c1ccc(Cl)cc1 ? 56%

Continuing:
Sample C=CCn1c(=O)c2cnc(Nc3ccc(N4CCN(C)CC4)cc3)nc2n1-c1cccc(C(C)(C)O)n1 + CC(C)NCC(C(=O)N1CCN(c2ncnc3c2C(C)CC3O)CC1)c1ccc(Cl)cc1 — what was its viability, T/C? 79.1%

Returns the measured viability, T/C for the input compound. Input: CCCS(=O)(=O)Nc1ccc(F)c(C(=O)c2c[nH]c3ncc(-c4ccc(Cl)cc4)cc23)c1F + CC(C)NCC(C(=O)N1CCN(c2ncnc3c2C(C)CC3O)CC1)c1ccc(Cl)cc1 88.3%

Can you share its viability, T/C? I mean this compound: CC(C)n1nc(-c2ccc3oc(N)nc3c2)c2c(N)ncnc21 + CC(C)NCC(C(=O)N1CCN(c2ncnc3c2C(C)CC3O)CC1)c1ccc(Cl)cc1 45.5%

====

# Tested on: LG0567-F671-PDC multi-cell spheroid viability
# assay_notes: Anticancer human tumor LG0567-F671-PDC cell line growth inhibition [IpAb];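 also: viability read after 7 days of drug exposure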;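 as to viability, T/C: 100% = DMSO vehicle control luminescence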
# run_parameters: second compound 0.316 µM; first compound 3.16 µM; stronger effect = lower value
measurement_type: viability, T/C (%)
Please reply with the bare figure in % and do not write the unit itself.

Consider the reported viability, T/C for these compounds:
viability, T/C for Cc1nc(NC(=O)N2CCCC2C(N)=O)sc1-c1ccnc(C(C)(C)C(F)(F)F)c1 (centres undefined) + CCN1CCN(Cc2ccc(Nc3ncc(F)c(-c4cc(F)c5nc(C)n(C(C)C)c5c4)n3)nc2)CC1 ? 35.5

Which measured viability, T/C value corresponds to CC1(C)CCC(CN2CCN(c3ccc(C(=O)NS(=O)(=O)c4ccc(NCC5CCOCC5)c([N+](=O)[O-])c4)c(Oc4cnc5[nH]ccc5c4)c3)CC2)=C(c2ccc(Cl)cc2)C1 + CC(C)NCC(C(=O)N1CCN(c2ncnc3c2C(C)CC3O)CC1)c1ccc(Cl)cc1 ? 83.8

Suppose we examine the compound C=CCn1c(=O)c2cnc(Nc3ccc(N4CCN(C)CC4)cc3)nc2n1-c1cccc(C(C)(C)O)n1 + CCN1CCN(Cc2ccc(Nc3ncc(F)c(-c4cc(F)c5nc(C)n(C(C)C)c5c4)n3)nc2)CC1 ; what viability, T/C value has been reported? 35.8

Further cases:
viability, T/C lookup needed for CC1(C)CCC(CN2CCN(c3ccc(C(=O)NS(=O)(=O)c4ccc(NCC5CCOCC5)c([N+](=O)[O-])c4)c(Oc4cnc5[nH]ccc5c4)c3)CC2)=C(c2ccc(Cl)cc2)C1 + CCN1CCN(Cc2ccc(Nc3ncc(F)c(-c4cc(F)c5nc(C)n(C(C)C)c5c4)n3)nc2)CC1 , thanks. 73.3
